Cited source for all entries: ChEMBL document CHEMBL3044945

- Tested on: Penicillium chrysogenum
- method: Antifungal activity against Penicillium chrysogenum MTCC 161 at 750 ug/ml after 48 hr by cup-plate method
- Format: functional
- conditionNotes: MTCC 161, 48 h, read-out: DIZ
outcomeMeasure: zone of inhibition at 750 µg/mL (mm)
Give your result in mm as a bare value.

Recorded zone of inhibition at 750 µg/mL for NC(=S)N1N=C(c2cccc3ccccc23)CC1c1ccc([N+](=O)[O-])cc1 (configuration not stated) with Penicillium chrysogenum, please?
19

Please do the same for NC(=O)N1N=C(c2cccc3ccccc23)CC1c1ccc([N+](=O)[O-])cc1 (configuration not stated) as well.
11

Please do the same for O=[N+]([O-])c1ccc(C2CC(c3cccc4ccccc34)=NN2c2ccc([N+](=O)[O-])cc2)cc1 (configuration not stated) as well.
14

Please do the same for O=[N+]([O-])c1ccc(C2CC(c3cccc4ccccc34)=NN2c2ccc([N+](=O)[O-])cc2[N+](=O)[O-])cc1 (configuration not stated) as well.
22

Please do the same for O=[N+]([O-])c1ccc(C2CC(c3cccc4ccccc34)=NN2)cc1 (configuration not stated) as well.
14

Please do the same for O=[N+]([O-])c1ccc(C2CC(c3cccc4ccccc34)=NN2c2ccccc2)cc1 (configuration not stated) as well.
15

Please do the same for O=[N+]([O-])c1ccc(C2CC(c3cccc4ccccc34)=NN2c2ccccc2[N+](=O)[O-])cc1 (configuration not stated) as well.
20

---

- Test system: Bacillus pumilus
- method: Antibacterial activity against Bacillus pumilus MTCC 1456 at 500 ug/ml after 48 hr by cup-plate method
- Type: functional
- conditionNotes: MTCC 1456, 48 h, read-out: DIZ
outcomeMeasure: zone of inhibition at 500 µg/mL (mm)
Give your result in mm as a bare value.

Answered examples (6):
Recorded zone of inhibition at 500 µg/mL for O=[N+]([O-])c1ccc(C2CC(c3cccc4ccccc34)=NN2c2ccc([N+](=O)[O-])cc2)cc1 (configuration not stated) with Bacillus pumilus, please?
10

Please do the same for NC(=O)N1N=C(c2cccc3ccccc23)CC1c1ccc([N+](=O)[O-])cc1 (configuration not stated) as well.
9

Please do the same for O=[N+]([O-])c1ccc(C2CC(c3cccc4ccccc34)=NN2c2ccc([N+](=O)[O-])cc2[N+](=O)[O-])cc1 (configuration not stated) as well.
18

Please do the same for O=[N+]([O-])c1ccc(C2CC(c3cccc4ccccc34)=NN2)cc1 (configuration not stated) as well.
10

Please do the same for O=[N+]([O-])c1ccc(C2CC(c3cccc4ccccc34)=NN2c2ccccc2)cc1 (configuration not stated) as well.
10

Please do the same for NC(=S)N1N=C(c2cccc3ccccc23)CC1c1ccc([N+](=O)[O-])cc1 (configuration not stated) as well.
16

In the following, a different compound is considered.
Recorded zone of inhibition at 500 µg/mL for O=[N+]([O-])c1ccc(C2CC(c3cccc4ccccc34)=NN2c2ccccc2[N+](=O)[O-])cc1 (configuration not stated) with Bacillus pumilus, please?
12

---

List of zone of inhibition at 1250 µg/mL values.
- Tested on: Staphylococcus aureus
- method: Antibacterial activity against Staphylococcus aureus MTCC 1430 at 1250 ug/ml after 48 hr by cup-plate method
- Type: functional
- conditionNotes: MTCC 1430, 48 h, read-out: DIZ
Give your result in mm as a bare value.

Recorded zone of inhibition at 1250 µg/mL for O=[N+]([O-])c1ccc(C2CC(c3cccc4ccccc34)=NN2c2ccc([N+](=O)[O-])cc2[N+](=O)[O-])cc1 (configuration not stated) with Staphylococcus aureus, please?
14

Please do the same for O=[N+]([O-])c1ccc(C2CC(c3cccc4ccccc34)=NN2c2ccc([N+](=O)[O-])cc2)cc1 (configuration not stated) as well.
13

Please do the same for NC(=S)N1N=C(c2cccc3ccccc23)CC1c1ccc([N+](=O)[O-])cc1 (configuration not stated) as well.
14

Please do the same for O=[N+]([O-])c1ccc(C2CC(c3cccc4ccccc34)=NN2c2ccccc2)cc1 (configuration not stated) as well.
18

---
Recorded zone of inhibition at 1250 µg/mL for NC(=O)N1N=C(c2cccc3ccccc23)CC1c1ccc([N+](=O)[O-])cc1 (configuration not stated) with Staphylococcus aureus, please?
14

Please do the same for O=[N+]([O-])c1ccc(C2CC(c3cccc4ccccc34)=NN2c2ccccc2[N+](=O)[O-])cc1 (configuration not stated) as well.
15

Please do the same for O=[N+]([O-])c1ccc(C2CC(c3cccc4ccccc34)=NN2)cc1 (configuration not stated) as well.
16

---

- Test system: Pseudomonas aeruginosa
- method: Antibacterial activity against Pseudomonas aeruginosa MTCC 424 at 750 ug/ml after 48 hr by cup-plate method
- Format: functional
- conditionNotes: MTCC 424, 48 h, read-out: DIZ
List of zone of inhibition at 750 µg/mL values.
Please answer in the form of a number followed by its unit of measurement.

For the molecule shown here, O=[N+]([O-])c1ccc(C2CC(c3cccc4ccccc34)=NN2c2ccccc2)cc1 (configuration not stated) , give the reported zone of inhibition at 750 µg/mL.
14 mm

Please do the same for NC(=S)N1N=C(c2cccc3ccccc23)CC1c1ccc([N+](=O)[O-])cc1 (configuration not stated) as well.
16 mm

Please do the same for O=[N+]([O-])c1ccc(C2CC(c3cccc4ccccc34)=NN2c2ccc([N+](=O)[O-])cc2[N+](=O)[O-])cc1 (configuration not stated) as well.
13 mm

Please do the same for O=[N+]([O-])c1ccc(C2CC(c3cccc4ccccc34)=NN2)cc1 (configuration not stated) as well.
12 mm

Please do the same for O=[N+]([O-])c1ccc(C2CC(c3cccc4ccccc34)=NN2c2ccccc2[N+](=O)[O-])cc1 (configuration not stated) as well.
16 mm

Please do the same for O=[N+]([O-])c1ccc(C2CC(c3cccc4ccccc34)=NN2c2ccc([N+](=O)[O-])cc2)cc1 (configuration not stated) as well.
13 mm

In the following, a different molecule is considered.
For the molecule shown here, NC(=O)N1N=C(c2cccc3ccccc23)CC1c1ccc([N+](=O)[O-])cc1 (configuration not stated) , give the reported zone of inhibition at 750 µg/mL.
12 mm

---

- System: Aspergillus niger
- method: Antifungal activity against Aspergillus niger MTCC 2546 after 24 to 48 hr by tube dilution method
- Format: functional
List of MIC values.
Give your result in µg/mL as a bare value.

Recorded MIC for O=[N+]([O-])c1ccc(C2CC(c3cccc4ccccc34)=NN2c2ccc([N+](=O)[O-])cc2)cc1 (stereo not drawn) with Aspergillus niger, please?
30

---
Recorded MIC for O=[N+]([O-])c1ccc(C2CC(c3cccc4ccccc34)=NN2)cc1 (stereo not drawn) with Aspergillus niger, please?
50

Please do the same for O=[N+]([O-])c1ccc(C2CC(c3cccc4ccccc34)=NN2c2ccccc2)cc1 (stereo not drawn) as well.
30

---

- System: Pseudomonas fluorescens
- method: Antibacterial activity against Pseudomonas fluorescens MTCC 2421 at 250 ug/ml after 48 hr by cup-plate method
- Assay type: functional
- conditionNotes: MTCC 2421, 48 h, read-out: DIZ
List of zone of inhibition at 250 µg/mL values.
Give your result in mm as a bare value.

Answered examples (4):
For the compound shown here, O=[N+]([O-])c1ccc(C2CC(c3cccc4ccccc34)=NN2)cc1 (stereo unspecified) , give the reported zone of inhibition at 250 µg/mL.
9

Please do the same for NC(=O)N1N=C(c2cccc3ccccc23)CC1c1ccc([N+](=O)[O-])cc1 (stereo unspecified) as well.
9

Please do the same for O=[N+]([O-])c1ccc(C2CC(c3cccc4ccccc34)=NN2c2ccccc2[N+](=O)[O-])cc1 (stereo unspecified) as well.
11

Please do the same for O=[N+]([O-])c1ccc(C2CC(c3cccc4ccccc34)=NN2c2ccccc2)cc1 (stereo unspecified) as well.
9

---
For the compound shown here, NC(=S)N1N=C(c2cccc3ccccc23)CC1c1ccc([N+](=O)[O-])cc1 (stereo unspecified) , give the reported zone of inhibition at 250 µg/mL.
10

Please do the same for O=[N+]([O-])c1ccc(C2CC(c3cccc4ccccc34)=NN2c2ccc([N+](=O)[O-])cc2)cc1 (stereo unspecified) as well.
10

---

- System: Bacillus subtilis
- method: Antibacterial activity against Bacillus subtilis MTCC 441 at 1000 ug/ml after 48 hr by cup-plate method
- Format: functional
- conditionNotes: MTCC 441, 48 h, read-out: DIZ
List of zone of inhibition at 1000 µg/mL values.
Give your result in mm as a bare value.

Answered examples (3):
For the molecule shown here, O=[N+]([O-])c1ccc(C2CC(c3cccc4ccccc34)=NN2c2ccc([N+](=O)[O-])cc2[N+](=O)[O-])cc1 (configuration not stated) , give the reported zone of inhibition at 1000 µg/mL.
15

Please do the same for O=[N+]([O-])c1ccc(C2CC(c3cccc4ccccc34)=NN2c2ccccc2[N+](=O)[O-])cc1 (configuration not stated) as well.
16

Please do the same for O=[N+]([O-])c1ccc(C2CC(c3cccc4ccccc34)=NN2c2ccccc2)cc1 (configuration not stated) as well.
19

---
For the molecule shown here, NC(=S)N1N=C(c2cccc3ccccc23)CC1c1ccc([N+](=O)[O-])cc1 (configuration not stated) , give the reported zone of inhibition at 1000 µg/mL.
19

Please do the same for O=[N+]([O-])c1ccc(C2CC(c3cccc4ccccc34)=NN2c2ccc([N+](=O)[O-])cc2)cc1 (configuration not stated) as well.
17

Please do the same for O=[N+]([O-])c1ccc(C2CC(c3cccc4ccccc34)=NN2)cc1 (configuration not stated) as well.
16

Please do the same for NC(=O)N1N=C(c2cccc3ccccc23)CC1c1ccc([N+](=O)[O-])cc1 (configuration not stated) as well.
15
